# LD50 per entry
PROTOCOL: Acute toxicity after peroral administration to mice
Assay type: organism-based
TEST_SETTINGS: mouse, in vivo, po
# value in mg/kg; strip the unit string

Below: 2 compounds and their reported LD50.
[[record]]
smiles_data = "CN1C[C@H]2C[C@@H]1CN2c1nc2c(cc1F)c(=O)c(C(=O)O)cn2C(C)(C)C"
measurement_name = "LD50"
measured_value = 1000

[[record]]
smiles_data = "Cc1c(F)c(N2C[C@H]3C[C@@H]2CN3)nc2c1c(=O)c(C(=O)O)cn2C1CC1"
measurement_name = "LD50"
measured_value = 1750


// field: LD50; key: CC(C)(C)n1cc(C(=O)O)c(=O)c2cc(F)c(N3C[C@H]4C[C@@H]3CN4)nc21 ; value = 5000

---

PROTOCOL: Peak concentration in blood after peroral administration to mice
Type: ADME, organism-based
Parameters: route oral
TEST_SETTINGS: mouse, po
MEASUREMENT_NAME: Cmax
Remember to follow the number with its unit.

Below: 2 molecules and their reported Cmax.
[[record]]
smiles_data = "Cc1c(F)c(N2C[C@H]3C[C@@H]2CN3)nc2c1c(=O)c(C(=O)O)cn2C1CC1"
measured_value = "9000 ng/mL"

[[record]]
smiles_data = "C[C@H]1[C@H]2C[C@H](CN2)N1c1nc2c(cc1F)c(=O)c(C(=O)O)cn2C(C)(C)C.Cl"
measured_value = "9000 ng/mL"


// field: Cmax; key: C[C@@H]1N[C@@H]2C[C@H]1N(c1nc3c(cc1F)c(=O)c(C(=O)O)cn3C(C)(C)C)C2.Cl ; value = 9000 ng/mL

---

# dose excreted at 24 h per entry
PROTOCOL: Percent urinary recovery in 24 hr after peroral administration to mice
Type: ADME, organism-based
TEST_SETTINGS: mouse, urine, po; read-out: UR
# value in %; strip the unit string

Below: 3 compounds and their reported dose excreted at 24 h.
[[record]]
compound = "O=C(O)c1cn(C2CC2)c2cc(N3CCNCC3)c(F)cc2c1=O [CIPROFLOXACIN]"
measurement_name = "dose excreted at 24 h"
value_units = "%"
measured_value = 30

[[record]]
compound = "CC(C)(C)n1cc(C(=O)O)c(=O)c2cc(F)c(N3C[C@H]4C[C@@H]3CN4)nc21"
measurement_name = "dose excreted at 24 h"
value_units = "%"
measured_value = 34

[[record]]
compound = "Cc1c(F)c(N2C[C@H]3C[C@@H]2CN3)nc2c1c(=O)c(C(=O)O)cn2C1CC1"
measurement_name = "dose excreted at 24 h"
value_units = "%"
measured_value = 34


// field: dose excreted at 24 h; key: C[C@H]1[C@H]2C[C@H](CN2)N1c1nc2c(cc1F)c(=O)c(C(=O)O)cn2C(C)(C)C.Cl ; value = 16

---

# AUC per entry
System: Mus musculus
PROTOCOL: Area under curve measured as conc vs time after peroral administration to mice.
Assay type: ADME, organism-based
Design: unit not given here
TEST_SETTINGS: in vivo, po
Simply state the number, no unit and no words.

// field: AUC; key: CN1C[C@H]2C[C@@H]1CN2c1nc2c(cc1F)c(=O)c(C(=O)O)cn2C(C)(C)C ; value = 18

---

Test system: Mus musculus
PROTOCOL: Area under curve measured as conc vs time after peroral administration to mice.
Format: ADME, organism-based
Set-up: unit not given here
TEST_SETTINGS: in vivo, po
MEASUREMENT_NAME: AUC
Simply state the number, no unit and no words.

// field: AUC; key: C[C@@H]1N[C@@H]2C[C@H]1N(c1nc3c(cc1F)c(=O)c(C(=O)O)cn3C(C)(C)C)C2.Cl ; value = 41

// field: AUC; key: C[C@@H]1[C@H]2C[C@H](CN2)N1c1nc2c(cc1F)c(=O)c(C(=O)O)cn2C(C)(C)C.Cl ; value = 5

// field: AUC; key: Cc1c(F)c(N2C[C@H]3C[C@@H]2CN3)nc2c1c(=O)c(C(=O)O)cn2C1CC1 ; value = 26
